system: Wolbachia pipientis; assay: Anti-Wolbachia Cell-Based Screen; assay type: functional; parameters: scale not given: in the data most compounds retested in dose-response had high values; details: 5 µM
The campaign covered roughly 48,000 compounds. About 13,000 (27%) showed an effect of 50% or more. Some of the results follow.
# label = label 1 if Percent Effect < 90% else label 0

Solved entries (count: 5):
[
  {
    "compound": "O=C(O)C(F)(F)F.O=C(O)C(F)(F)F.c1ccc(COC[C@H]2CC[C@H]3[C@H](CCN3Cc3cccs3)O2)nc1",
    "label class": "label 1"
  },
  {
    "compound": "COc1cc(N2CC[C@@H]3[C@@H](CC2)OCCN3CC2CC2)ncn1",
    "label class": "label 0"
  },
  {
    "compound": "CCOC(=O)[C@@H]1[C@@H](c2ccccc2)CN2CCN(C(C)=O)C[C@H]12",
    "label class": "label 1"
  },
  {
    "compound": "COCCN1CCO[C@H]2CCN(C(=O)c3ccnnc3)CC[C@@H]21.O=C(O)C(F)(F)F",
    "label class": "label 1"
  },
  {
    "compound": "COc1cc(N2CCN(CC3CC3)c3nc(C)ccc3C2)ncn1",
    "label class": "label 0"
  }
]

Lookup: Say whether its Percent Effect is strictly beneath 90%. Entry: `CNC(=O)[C@H]1C[C@@H]2CN(c3cc(OC)ncn3)C[C@@H]2N1C(C)C`
Found: label 1

Lookup: Please state whether Percent Effect is below 90% for `CC[C@H]1CN2CC[C@H]1C[C@@H]2CNC(=O)Nc1ccccc1`
Found: label 1

Lookup: Quick check: Percent Effect of `COc1cc(N2CC[C@@H]3OCCN(C)[C@H]3CC2)ncn1` under 90%?
Found: label 0

Lookup: A record lists `C[C@H]1C[C@@H]2CCN(Cc3nccs3)C[C@H]2O1` . Is its Percent Effect below 90%?
Found: label 1

Lookup: Record `c1coc(CN2CC[C@@H]3O[C@@H](COCc4ccncc4)CC[C@@H]32)c1` : is its Percent Effect strictly below 90%?
Found: label 1

Lookup: Field: below-cutoff. Rule: recorded Percent Effect strictly less than 90%. Subject: `Cc1nc(C2CCN(C(C)C)CC2)sc1Br`
Found: label 1

Lookup: Strictly below 90% in Percent Effect? Cc1nn(C)c2ncc(S(=O)(=O)N3CCN4CCCC4C3)cc12 (stereo unspecified)
Found: label 1

Lookup: Identify whether the compound `CC(C)N(C)Cc1cncc2c1CCN(Cc1cccs1)C2.Cl.Cl.Cl` records Percent Effect below 90%.
Found: label 0

Lookup: In plain terms, does `Cc1ccc(C(=O)N2CC[C@H]3[C@H]2CCN3CC2CCOCC2)cn1` come in under 90% for Percent Effect?
Found: label 1

Lookup: Does the reported Percent Effect of `COCCN1CCN(c2cc(OC)ncn2)Cc2ccc(C)nc21` stay below 90%?
Found: label 0

----------
system: Wolbachia pipientis; test: Anti-Wolbachia Cell-Based Screen; format: functional; parameters: scale not given: in the data most compounds retested in dose-response had high values; conditions: 5 µM
In all, about 48,000 compounds went through this assay and about 13,000 (27%) showed an effect of 50% or more. The list shows a part of the results.
attribute measured: Percent Effect (%)
Respond with the bare value in %.

[
  {
    "molecule": "O=C(O)C(F)(F)F.O=C(O)C(F)(F)F.c1cncc(OC[C@@]23CCC[C@@H]2CN(CC2CCOCC2)C3)c1",
    "measure unit": "%",
    "Percent Effect": 108.6
  },
  {
    "molecule": "COCCN1C[C@@H](C)[C@@]2(COCCN(C(=O)c3ccncc3)C2)C1.O=C(O)C(F)(F)F.O=C(O)C(F)(F)F",
    "measure unit": "%",
    "Percent Effect": 2.912
  },
  {
    "molecule": "CCN1CCOCC2(C1)CN(C(=O)c1c(C)noc1C)CCO2 (centres undefined)",
    "measure unit": "%",
    "Percent Effect": 103.8
  }
]

# ---- query molecule ----
Lookup: Returns the measured Percent Effect for the input molecule. Input: O=C(O)C(F)(F)F.O=C(O)C(F)(F)F.c1cnc(N2CCC3(COCCN(CC4CC4)C3)C2)nc1 (centres undefined)
Found: -6.749

----------
test system: Wolbachia pipientis; assay: Anti-Wolbachia Cell-Based Screen; format: functional; design: scale not given: in the data most compounds retested in dose-response had high values; settings: 5 µM
Hit rate of the full screen: of about 48,000 compounds, about 13,000 (27%) showed an effect of 50% or more. The list shows a part of the results.
Label 0 if Percent Effect falls below 20%; label 1 in every other case.

Some entries whose results are on file:
[
  {
    "compound": "COCCN(CCOC)C(=O)c1cn(C(C)(C)C)c2ncccc12",
    "label class": 1
  },
  {
    "compound": "CCOCCCNC(=O)c1cn(C(C)(C)C)c2ncccc12",
    "label class": 1
  },
  {
    "compound": "COCCNC(=O)c1cn(C(C)(C)C)c2ncccc12",
    "label class": 0
  }
]

Lookup: Decide: Percent Effect of CC1C(=O)Nc2cccnc2N1S(=O)(=O)c1ccc(C#N)c(Cl)c1 (stereo unspecified) >= 20%?
Found: 0

Lookup: Hello, I need to know if COCC(C)NC(=O)c1cn(C(C)(C)C)c2ncccc12 (stereo unspecified) has measured Percent Effect not below 20%. Thanks!
Found: 0

Lookup: Decide: is the reported value of Percent Effect for `CCN1CCc2[nH]cnc2C12CCN(c1ccc(Cl)cn1)CC2` equal to or greater than 20%?
Found: 1

----------
system: Wolbachia pipientis; assay: Anti-Wolbachia Cell-Based Screen; assay type: functional; design: scale not given: in the data most compounds retested in dose-response had high values; conditions: 5 µM
Hit rate of the full screen: of about 48,000 compounds, about 13,000 (27%) showed an effect of 50% or more. This is one part of the list.
attribute measured: Percent Effect (%)
Please state the figure in %; there is no need to write the unit.

[
  {
    "molecule": "CN1CCN(S(C)(=O)=O)Cc2cccnc21",
    "measure unit": "%",
    "Percent Effect": 126.5
  },
  {
    "molecule": "CC[C@H]1CN2CC[C@H]1C[C@@H]2CNC(=O)Nc1ccc(Br)cc1",
    "measure unit": "%",
    "Percent Effect": -5.559
  },
  {
    "molecule": "N#Cc1ccc(NC2CCN(c3ncccn3)CC2)cc1C(F)(F)F",
    "measure unit": "%",
    "Percent Effect": -29.96
  },
  {
    "molecule": "CCOc1ccc(-c2cc(CCN)ccc2OC)cc1",
    "measure unit": "%",
    "Percent Effect": 7.711
  },
  {
    "molecule": "CCCN1CCC(c2nc3ccc(C)cn3n2)CC1.O=C(O)C(F)(F)F",
    "measure unit": "%",
    "Percent Effect": 104.2
  },
  {
    "molecule": "CN1CCN(S(=O)(=O)C2CC2)Cc2cccnc21",
    "measure unit": "%",
    "Percent Effect": 113.9
  },
  {
    "molecule": "O=C(NCC1CC1)[C@H]1C[C@@H]2[C@@H](C1)OCCN2Cc1cccnc1.O=C(O)C(F)(F)F.O=C(O)C(F)(F)F",
    "measure unit": "%",
    "Percent Effect": 13.71
  },
  {
    "molecule": "O=C(O)C(F)(F)F.O=C(O)C(F)(F)F.O=C(c1cccnc1)N1CCN2C[C@H](Oc3cncnc3)C[C@H]2C1",
    "measure unit": "%",
    "Percent Effect": -8.279
  },
  {
    "molecule": "COc1cccc(CC(C)NC(=O)NC(C)C)c1 (configuration not stated)",
    "measure unit": "%",
    "Percent Effect": -4.746
  },
  {
    "molecule": "CCS(=O)(=O)N1CCc2c(COCCN(C)C)cncc2C1.O=C(O)C(F)(F)F.O=C(O)C(F)(F)F",
    "measure unit": "%",
    "Percent Effect": 97.71
  }
]

Lookup: // query Percent Effect value for entry `CC(C)(CNc1ccc(C#N)c(C(F)(F)F)c1)C(N)=O`
Found: -0.8311

Lookup: Data request, read-out Percent Effect, for `O=C(O)C(F)(F)F.O=C(O)C(F)(F)F.O=C(O)C(F)(F)F.c1cc(CN2CCO[C@H]3[C@H](OCCN4CCCC4)CC[C@@H]32)ccn1`
Found: 104.9

----------
system: Wolbachia pipientis; experiment: Anti-Wolbachia Cell-Based Screen; assay type: functional; design: scale not given: in the data most compounds retested in dose-response had high values; settings: 5 µM
Screen size: about 48,000 compounds; about 13,000 (27%) showed an effect of 50% or more. The list shows a part of the results.
Form field: Percent Effect (one value per entry).
Only the number, expressed in %, is required.

Consider the following illustrative entries.
[
  {
    "compound": "O=C(O)C(F)(F)F.O=C(O)C(F)(F)F.O=C(O)C(F)(F)F.c1ccc(CN2C[C@@H]3CCCO[C@@H]3[C@H](Nc3ccccn3)C2)nc1",
    "measured value": -7.621
  },
  {
    "compound": "Cn1cnc(S(=O)(=O)N2C[C@H]3CN(Cc4cccnc4)C[C@H]3C2)c1.O=C(O)C(F)(F)F.O=C(O)C(F)(F)F.O=C(O)C(F)(F)F",
    "measured value": -11.02
  }
]

Shifting focus to the compound that follows.
Lookup: So what does the record say about Percent Effect for `CCS(=O)(=O)N[C@@H]1CN(Cc2cc(C)on2)C[C@@H]2CCCO[C@@H]21.O=C(O)C(F)(F)F` ?
Found: -1.229
